# Tested on: RXRa homodimer (NR concentration 180 nM)
# METHOD: PBM binding z-score (relative to random genomic background probes); higher = stronger binding; sequences stand for … in GC…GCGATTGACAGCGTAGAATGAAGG
# label = true if PBM binding z-score >= 3 else false

Please check the record "TCTATTAGTTGAAGGGCTACCGACGAGTCCGTTT" and state if its PBM binding z-score is at or above 3.
false

Entry "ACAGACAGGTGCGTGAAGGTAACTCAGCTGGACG" please
false

----------
# System: RARg:RXRa (NR concentration 270 nM, RXRa partner concentration 90 nM)
# METHOD: PBM binding z-score (relative to random genomic background probes); higher = stronger binding; sequences stand for … in GC…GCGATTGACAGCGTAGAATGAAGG
PROPERTY_MEASURED: PBM binding z-score
Just the number.

// known answers, use as guide
| QUERY_SEQUENCE | PBM binding z-score |
| --- | --- |
| TCTATTAGTTGATTAGGTCAACCGAAACAGCGGA | 2.8 |
| GATACAGGGTCAGCTAAAGGCCAGAGTATGGAAA | 6.61 |
| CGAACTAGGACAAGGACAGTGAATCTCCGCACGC | 0.083 |
| ACAGTCAGGTGAGTGAAGGTAACTCAGCTGGACG | 0.2 |
| CGTACAAGGTCAGAGAGGTCAGTGAATGCCGAGT | 6.28 |

Find the measured PBM binding z-score: item "GCACACAGGTGAAACGCAGGTAACTCAGGGTGGC" , target or system RARg:RXRa (NR concentration 270 nM, RXRa partner concentration 90 nM).
1.15

Thanks! And "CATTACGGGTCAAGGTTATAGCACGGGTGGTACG" ?
5.08

Okay, and "TCTTGTAGATCAGCAGGTTATGAAAGCTGGCCAA" ?
-0.168

// same read-out, input: "CTACCAAGGTGACCAAGGTCGTTGATTACTATTC"
1.47

// query: "GATACAGGTTCAAGGCCAGAGTACGCGTATTGAT"
1.82

Another: "GCTTGTAGATCAAGGTTCAGAAAGACTAAGCTAA"
0.226

Could you do the same for "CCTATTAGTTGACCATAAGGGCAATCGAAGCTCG" , please?
1.12

Try the sequence "GGAACGAGGGCAGTCGAGTTGATAGCATGGCGAT"
0.643

And what about the sequence "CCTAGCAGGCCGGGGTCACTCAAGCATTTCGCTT" ?
4.98

Try "CGTCAAAGTTCGACTAAGGTAACGTAAAGCACGC" next.
2.14

Would you mind doing "TCTAGTTGGCCAAAGGTCACACACTCGAAATGCG" as well?
6.5

Now the same for "CCTTTCGGGTCAAGGTTATAGCACGGGTGGTACG"
5.07

Next: "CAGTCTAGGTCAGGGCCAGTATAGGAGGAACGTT"
3.02

Again, but for "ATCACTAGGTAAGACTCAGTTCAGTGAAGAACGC"
0.282

Ref: the supplement of paper PMC6555819
